Attribution: patent US8404677B2

test system: HOP-92; assay: cells; type: cell-based; conditions: Homo sapiens; HOP-92 (NSCLC)
quantity-kind: IC50

molecule | target-system | quantity-kind | result-value
O=c1[nH]ccc2nc(N3CCC(O)CC3)nc(Nc3cccc(C(F)(F)F)c3)c12 [Compound 6] | HOP-92 | IC50 | ≥ 100 µM

---

target: truncated human RET (Homo sapiens, UniProt P07949); construct: truncated human FAK, RET, FLT3, JAK2, and LRRK2 (CARNA BIOSCIENCES™); assay: Inhibition of enzymatic kinase activity (LANCE Ulight)
Sequence (P07949 658-1114 limits assumed): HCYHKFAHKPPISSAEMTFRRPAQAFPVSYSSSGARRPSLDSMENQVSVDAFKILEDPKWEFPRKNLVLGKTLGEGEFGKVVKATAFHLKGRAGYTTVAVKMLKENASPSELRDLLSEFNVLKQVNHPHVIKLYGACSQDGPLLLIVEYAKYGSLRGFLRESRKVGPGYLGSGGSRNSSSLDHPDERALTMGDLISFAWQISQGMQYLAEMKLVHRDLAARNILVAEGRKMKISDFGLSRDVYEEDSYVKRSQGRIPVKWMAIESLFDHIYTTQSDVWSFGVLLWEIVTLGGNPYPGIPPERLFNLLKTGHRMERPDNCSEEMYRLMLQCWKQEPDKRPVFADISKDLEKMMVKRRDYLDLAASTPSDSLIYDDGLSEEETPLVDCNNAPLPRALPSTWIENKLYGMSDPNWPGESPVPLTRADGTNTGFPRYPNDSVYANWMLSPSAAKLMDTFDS
# log10 IC50 listing for each entry below
quantity-kind: log10 IC50 (log10 of the value in nM)

compound | log10 IC50
O=c1[nH]ccc2nc(N3CCC(CO)CC3)nc(Nc3ccc(N4CCOCC4)cc3)c12 [Compound 139] | 0.61
O=c1[nH]ccc2nc(N3CCC(O)CC3)nc(Nc3ccc(N4CCOCC4)cc3)c12 [Compound 134] | 0.86
Cl.O=c1[nH]ccc2nc(N[C@H]3CCNC3)nc(Nc3ccc(N4CCOCC4)cc3)c12 [Compound 136, hydrochloride] | 0.11
Cl.O=c1[nH]ccc2nc(N[C@H]3CCNC3)nc(Nc3ccc(C(F)(F)F)cc3)c12 [Compound 8, hydrochloride] | 0.41
O=c1[nH]ccc2nc(N3CCC(O)CC3)nc(Nc3cccc(C(F)(F)F)c3)c12 [Compound 6] | 1.97
COc1cc(Nc2nc(N3CCC(O)CC3)nc3cc[nH]c(=O)c23)cc(OC)c1 [Compound 1] | 2.30

---

tested on: MALME-3M; test: cells; assay type: cell-based; conditions: Homo sapiens; MALME-3M (Melanoma)

molecular-string | IC50
O=c1[nH]ccc2nc(N3CCC(O)CC3)nc(Nc3cccc(C(F)(F)F)c3)c12 | 9.77 µM

---

target: truncated human FAK (Homo sapiens); construct: truncated human FAK, RET, FLT3, JAK2, and LRRK2 (CARNA BIOSCIENCES™); experiment: Inhibition of enzymatic kinase activity (LANCE Ulight); conditions: read-out: FAK molar inhibition (IC50)
Sequence (Q05397 376-1052 limits assumed): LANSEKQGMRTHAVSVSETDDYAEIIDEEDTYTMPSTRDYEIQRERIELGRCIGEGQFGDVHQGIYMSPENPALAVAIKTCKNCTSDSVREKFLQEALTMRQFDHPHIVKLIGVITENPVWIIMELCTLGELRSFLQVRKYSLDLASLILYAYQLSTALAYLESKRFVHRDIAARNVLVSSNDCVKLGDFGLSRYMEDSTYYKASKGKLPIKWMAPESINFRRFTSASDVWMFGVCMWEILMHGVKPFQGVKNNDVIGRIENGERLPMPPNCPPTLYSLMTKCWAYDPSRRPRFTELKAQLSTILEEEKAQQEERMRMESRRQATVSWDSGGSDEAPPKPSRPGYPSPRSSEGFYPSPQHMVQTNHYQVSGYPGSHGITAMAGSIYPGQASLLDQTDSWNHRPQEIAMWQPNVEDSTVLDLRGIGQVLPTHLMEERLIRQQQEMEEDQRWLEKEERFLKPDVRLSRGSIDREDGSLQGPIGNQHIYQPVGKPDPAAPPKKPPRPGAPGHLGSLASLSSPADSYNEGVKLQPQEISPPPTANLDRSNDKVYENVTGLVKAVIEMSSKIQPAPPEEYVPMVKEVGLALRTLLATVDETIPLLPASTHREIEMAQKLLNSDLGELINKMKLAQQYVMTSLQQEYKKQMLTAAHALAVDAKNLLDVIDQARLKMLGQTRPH
pIC50: −log10 of the molar value.
# pIC50 listing for each entry below
quantity-kind: pIC50

molecular-string | result-value
COc1ccc(Nc2nc(N3CCC(CO)CC3)nc3cc[nH]c(=O)c23)cc1C(F)(F)F | 6.66
COc1ccc(Nc2nc(N3CCC(O)(CO)CC3)nc3cc[nH]c(=O)c23)cc1C(F)(F)F | 6.47

---

tested on: 786-0; experiment: cells; type: cell-based; details: Homo sapiens; 786-0 (Renal Cancer)

molecule | units-of-measure | IC50
O=c1[nH]ccc2nc(N3CCC(O)CC3)nc(Nc3cccc(C(F)(F)F)c3)c12 [Compound 6] | µM | 8.13

---

biological target: PYK2 (Homo sapiens, UniProt Q14289); experiment: Inhibition of enzymatic kinase activity (LANCE Ulight); assay type: biochemical; set-up: Purified full-length human SYK, ZAP70, PIM1, PYK2; purchased Carna Biosciences; conditions: at 1 μM concentration; read-out: PYK2 percentage inhibition
Sequence (Q14289 whole entry): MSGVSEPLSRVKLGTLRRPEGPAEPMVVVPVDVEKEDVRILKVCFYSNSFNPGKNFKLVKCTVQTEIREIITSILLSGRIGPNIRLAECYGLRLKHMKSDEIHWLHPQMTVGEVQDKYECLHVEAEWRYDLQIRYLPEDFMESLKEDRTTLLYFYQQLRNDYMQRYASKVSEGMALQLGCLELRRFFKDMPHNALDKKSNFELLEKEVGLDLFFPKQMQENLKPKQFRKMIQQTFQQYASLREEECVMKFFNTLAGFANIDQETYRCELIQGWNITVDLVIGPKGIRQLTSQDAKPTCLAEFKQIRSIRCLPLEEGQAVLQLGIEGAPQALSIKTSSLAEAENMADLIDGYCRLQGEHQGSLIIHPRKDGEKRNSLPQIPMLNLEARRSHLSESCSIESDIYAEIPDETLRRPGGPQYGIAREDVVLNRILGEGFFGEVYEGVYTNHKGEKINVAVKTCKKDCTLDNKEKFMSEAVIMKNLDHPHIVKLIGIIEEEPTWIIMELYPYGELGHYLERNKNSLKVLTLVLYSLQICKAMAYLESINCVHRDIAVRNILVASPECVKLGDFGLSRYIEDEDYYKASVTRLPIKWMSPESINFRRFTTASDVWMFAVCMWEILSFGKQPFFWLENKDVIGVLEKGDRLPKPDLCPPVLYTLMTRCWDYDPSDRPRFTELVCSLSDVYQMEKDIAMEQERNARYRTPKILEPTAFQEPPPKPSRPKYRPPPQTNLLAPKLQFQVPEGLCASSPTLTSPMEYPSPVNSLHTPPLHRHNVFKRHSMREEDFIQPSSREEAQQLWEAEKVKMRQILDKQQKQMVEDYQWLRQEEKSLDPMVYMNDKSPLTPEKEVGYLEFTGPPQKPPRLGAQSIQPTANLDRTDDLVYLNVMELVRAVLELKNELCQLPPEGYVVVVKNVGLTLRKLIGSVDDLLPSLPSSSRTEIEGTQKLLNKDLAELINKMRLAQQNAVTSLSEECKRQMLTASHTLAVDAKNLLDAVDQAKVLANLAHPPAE
Where a name gives a salt, the structure may show the parent alone.

compound | inhibition at 1 µM, %
N[C@@H]1CCN(c2nc(Nc3cccc(C(F)(F)F)c3)c3c(=O)[nH]ccc3n2)C1 [Compound 7, hydrochloride] | 84.9
NC1CCC(Nc2nc(Nc3cccc(C(F)(F)F)c3)c3c(=O)[nH]ccc3n2)CC1 (stereo not shown) | 89
Cn1ccc2nc(N3CCC(O)CC3)nc(Nc3cccc(C(F)(F)F)c3)c2c1=O | 1
O=c1[nH]ccc2nc(N3CCC(O)CC3)nc(Nc3cccc(C(F)(F)F)c3)c12 | 83
CS(=O)(=O)c1ccc(Nc2nc(N3CCC(O)CC3)nc3cc[nH]c(=O)c23)cc1 | 39.5
NC1CCN(c2nc(Nc3cccc(Br)c3)c3c(=O)[nH]ccc3n2)CC1 [Compound 84, hydrochloride] | 92.8
N[C@@H]1CCCC[C@H]1Nc1nc(Nc2cc(C(F)(F)F)cc(C(F)(F)F)c2)c2c(=O)[nH]ccc2n1 | 88.4
